# IG50 (cytotoxicity, µM) per entry
- Test system: HEK293-ABCG2 and HEK293-pcDNA3.1 cells
- method: Cytotoxicity, MTT colorimetric assay, 72 h
- Type: cell-based, human
- test-settings: concentration producing 50% inhibition of cell growth; MTT, 72 h

Input line: Recorded IG50 (cytotoxicity, µM) of COc1cc(OC)c(/C=C/C(=O)c2cn(C)c3ccc(OC)cc23)c(OC)c1 , please.
Output line: 1.0 ± 0.1 µM

* * *

- Tested on: HEK293-ABCG2 and HEK293-pcDNA3.1 cells
- method: Cytotoxicity, MTT colorimetric assay, 72 h
- Format: cell-based, human
- test-settings: concentration producing 50% inhibition of cell growth; MTT, 72 h
# IG50 (cytotoxicity, µM) per entry
Value expressed in µM; do not type the unit.

Known results for molecules:
COc1cc(OC)c(/C=C/C(=O)c2cn(C)c3ccccc23)c(OC)c1 [Compound 37]	4.0
COc1cccc(/C=C/C(=O)c2c(O)cc(OC)cc2OC)c1 [Compound 31]	10.0

Input line: Recorded IG50 (cytotoxicity, µM) of COc1cc(/C=C/C(=O)c2c(O)cc(OC)cc2OC)cc(OC)c1 [Compound 28] , please.
Output line: 6.0
